# tgt: T-type calcium channel (Homo sapiens, UniProt O95180)
# Sequence (O95180 whole entry): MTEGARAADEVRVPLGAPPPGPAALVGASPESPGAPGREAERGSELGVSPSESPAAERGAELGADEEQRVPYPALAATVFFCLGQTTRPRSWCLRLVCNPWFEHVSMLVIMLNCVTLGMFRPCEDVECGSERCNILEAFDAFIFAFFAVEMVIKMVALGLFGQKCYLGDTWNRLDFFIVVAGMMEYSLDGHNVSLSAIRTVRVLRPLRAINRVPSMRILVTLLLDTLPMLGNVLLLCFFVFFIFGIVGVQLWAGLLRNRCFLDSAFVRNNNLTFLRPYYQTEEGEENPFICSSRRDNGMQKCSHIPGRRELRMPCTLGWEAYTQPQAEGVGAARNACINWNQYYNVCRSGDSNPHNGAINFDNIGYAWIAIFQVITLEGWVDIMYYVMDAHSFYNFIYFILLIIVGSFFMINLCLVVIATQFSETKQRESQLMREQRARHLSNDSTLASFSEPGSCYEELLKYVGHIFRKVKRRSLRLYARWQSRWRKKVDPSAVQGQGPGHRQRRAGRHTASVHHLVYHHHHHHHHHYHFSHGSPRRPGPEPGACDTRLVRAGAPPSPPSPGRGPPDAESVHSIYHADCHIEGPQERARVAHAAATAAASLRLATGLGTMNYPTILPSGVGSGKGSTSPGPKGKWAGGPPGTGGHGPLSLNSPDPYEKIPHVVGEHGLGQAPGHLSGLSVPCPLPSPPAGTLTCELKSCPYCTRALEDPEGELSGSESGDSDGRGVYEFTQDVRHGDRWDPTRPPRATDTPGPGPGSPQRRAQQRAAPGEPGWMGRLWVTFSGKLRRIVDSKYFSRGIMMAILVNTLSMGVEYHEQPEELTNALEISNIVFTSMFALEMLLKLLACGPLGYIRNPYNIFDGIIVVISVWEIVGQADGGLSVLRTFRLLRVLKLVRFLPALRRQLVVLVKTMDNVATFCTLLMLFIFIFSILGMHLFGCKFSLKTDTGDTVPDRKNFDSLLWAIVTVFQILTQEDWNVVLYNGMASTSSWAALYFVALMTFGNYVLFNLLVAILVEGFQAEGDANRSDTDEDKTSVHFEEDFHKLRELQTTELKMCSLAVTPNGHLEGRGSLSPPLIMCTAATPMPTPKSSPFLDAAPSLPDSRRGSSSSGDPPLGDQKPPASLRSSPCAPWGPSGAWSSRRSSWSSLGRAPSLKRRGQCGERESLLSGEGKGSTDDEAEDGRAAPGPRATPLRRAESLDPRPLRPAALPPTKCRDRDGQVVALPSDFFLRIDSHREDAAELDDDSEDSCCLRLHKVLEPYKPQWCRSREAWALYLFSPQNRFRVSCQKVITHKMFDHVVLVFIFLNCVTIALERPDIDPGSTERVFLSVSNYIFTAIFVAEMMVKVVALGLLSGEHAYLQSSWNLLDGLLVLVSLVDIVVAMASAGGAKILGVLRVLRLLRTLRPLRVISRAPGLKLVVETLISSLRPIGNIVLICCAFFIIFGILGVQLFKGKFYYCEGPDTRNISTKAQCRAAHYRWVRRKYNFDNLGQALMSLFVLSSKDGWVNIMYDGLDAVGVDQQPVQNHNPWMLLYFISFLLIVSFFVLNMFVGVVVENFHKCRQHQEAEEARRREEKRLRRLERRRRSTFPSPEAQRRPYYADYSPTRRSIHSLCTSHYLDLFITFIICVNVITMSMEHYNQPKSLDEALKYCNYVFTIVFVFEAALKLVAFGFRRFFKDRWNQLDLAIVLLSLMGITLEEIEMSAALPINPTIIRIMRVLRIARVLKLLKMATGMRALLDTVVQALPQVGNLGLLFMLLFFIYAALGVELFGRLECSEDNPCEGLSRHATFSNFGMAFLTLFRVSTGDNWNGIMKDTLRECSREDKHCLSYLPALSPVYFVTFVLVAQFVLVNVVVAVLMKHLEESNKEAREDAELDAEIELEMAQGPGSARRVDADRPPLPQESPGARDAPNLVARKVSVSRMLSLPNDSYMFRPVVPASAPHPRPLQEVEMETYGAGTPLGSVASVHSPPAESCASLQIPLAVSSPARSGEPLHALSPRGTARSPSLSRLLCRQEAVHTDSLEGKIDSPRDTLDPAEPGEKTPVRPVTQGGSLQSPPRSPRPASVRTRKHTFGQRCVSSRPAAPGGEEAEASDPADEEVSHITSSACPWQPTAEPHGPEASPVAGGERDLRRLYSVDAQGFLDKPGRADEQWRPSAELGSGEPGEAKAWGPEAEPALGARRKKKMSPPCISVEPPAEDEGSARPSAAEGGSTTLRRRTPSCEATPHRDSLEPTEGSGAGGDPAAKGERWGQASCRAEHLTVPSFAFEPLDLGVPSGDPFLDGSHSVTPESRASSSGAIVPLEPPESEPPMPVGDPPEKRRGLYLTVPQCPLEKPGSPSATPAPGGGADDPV
# test.details: T-type channel blocking, FLIPR data (Table 6)
# Type: cell-based
# measurement.context: CAv3.2, inactivated state, read-out: CAv3.2 IC50 Inact.
Kindly state IC50 for each of the entries shown.

Given CC(C)([C@H]1C[C@H](NS(=O)(=O)c2ccc(F)c(C(F)(F)F)c2)C1)S(=O)(=O)c1cccc(C(F)(F)F)c1 , state its recorded IC50.
2160 nM

Same lookup for CC(C)([C@H]1C[C@@H](NC(=O)c2ncc(C(F)(F)F)cc2S(C)(=O)=O)C1)S(=O)(=O)c1cccc(OC(F)(F)F)c1 , please.
10000 nM

Thanks! And CC(C)([C@H]1C[C@H](NC(=O)c2ccnc(C(F)(F)F)n2)C1)S(=O)(=O)c1cccc(OC(F)(F)F)c1 ?
7840 nM

Queued: O=C(NC[C@H]1C[C@H](S(=O)(=O)c2cccc(C(F)(F)F)c2)C1)c1ccc(Cl)cn1
5830 nM

Same question for CC(C)([C@H]1C[C@@H](NC(=O)c2ccc(F)c(Cl)c2)C1)S(=O)(=O)c1cc(F)cc(C(F)(F)F)c1 please.
1370 nM

Note, next up: CC(C)([C@H]1C[C@H](NS(=O)(=O)c2ccc(OC(F)(F)F)cc2)C1)S(=O)(=O)c1cc(F)cc(C(F)(F)F)c1
1430 nM

Same lookup for CC(C)([C@H]1C[C@@H](NS(=O)(=O)c2ccc(C(F)(F)F)cc2Cl)C1)S(=O)(=O)c1cccc(C(F)(F)F)c1 , please.
1330 nM

Taken from patent US20120245137A1.
